Let's look at some variants and their measured abundance fitness.
B1: Tyrosine-protein kinase Lck, residues 63 to 120; numbered along this chain, P06239 (parent)
chain: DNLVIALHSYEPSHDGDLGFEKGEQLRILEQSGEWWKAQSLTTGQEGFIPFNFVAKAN

# Variants of: B1
# EXPERIMENT SUMMARY: abundance fitness (aPCA) (normalised: wild type 0, dead -1); higher = more abundant; growth selection in yeast, the domain comes from the species named
# CONDITION NOTES: Homo sapiens
MEASURED QUANTITY: abundance fitness

   mutation_id  measured_quantity  reported_measurement
0         G44Y  abundance fitness                -0.467
1         D15I  abundance fitness                -0.225
2          A6L  abundance fitness                -0.845
3         T42N  abundance fitness                 0.034
4         E46S  abundance fitness                 0.021
5         I28S  abundance fitness                -0.645
6         L29T  abundance fitness                -0.283
7         G44N  abundance fitness                -0.193
8         N52G  abundance fitness                -0.067
